EXPERIMENT_SUMMARY: yeast display, Sf9 membrane polyspecificity reagent, FACS + sequencing; frameworks hold sequencing errors

SEQUENCE_ENTRY: QVQLVESGGGLVQAGGSLRLSCAASVRIFLWYAMGWYRQAPGKERELVAAITKSAGTTYYADSVKGRFTISRDNAKNTVYLQMNSLKPEDTAVYYCGAYYWLYAHWRFGNYWGQGTQVTVSS
polyreactivity (PSR sort gate): low polyreactivity

SEQUENCE_ENTRY: QVQLVESGGGLVQAGGSLRLSCAASGSIFYLYAMGWYRQAPGKERELVAGIRYRGGSTYYADSVKGRFTISRDNAKNTVYLQMNSLKPEDTAVYYCAAEYGDGRYWSYDYWGQGTQVTVSS
polyreactivity (PSR sort gate): high polyreactivity

SEQUENCE_ENTRY: QVQLVESGGGLVQAGGSLRLSCAASGRTFRVNSMGWYRPAPGKDRELVATIRWTGGSTYYADSVKGRFTISRDNAKNTVYLQMNSLKPEDTAVYYCAARIAVYHRGIGGYWGQGTQVTVSS
polyreactivity (PSR sort gate): high polyreactivity

SEQUENCE_ENTRY: QVQLVESGGGLVQAGGSLRLSCAASGRTFVFNAMGWYRQAPGKERELVAAITKNGGSTYYADSVKGRFTISRDNAKNTVYLQMNSLKPEDTAVYYCAVRRGYPFYYWGQGTQVTVSS
polyreactivity (PSR sort gate): low polyreactivity

SEQUENCE_ENTRY: QVQLVESGGGLVQAGGSLRLSCAASGSIFNPNAMGWYRQAPGKERELLAAIDSGGTTDYADSVKGRFTISRDNAKNTVYLQMNSLKPEVTAVYYCNADRTVTSSSFTDYDYWGQGTQVTVSS
polyreactivity (PSR sort gate): high polyreactivity

SEQUENCE_ENTRY: QVQLVESGGGLVQAGGSLRLSCAASGFIFSSYAMGWYRQAPGKERELVAAISWSDSSTYYADSVKGRFTISRDNSKNTVYLQMTSLKPEDTAVYYCNVEVAESYDYWGQGTQVTVSS
polyreactivity (PSR sort gate): low polyreactivity

SEQUENCE_ENTRY: QVQLVESGRGLVQAGGSLRLSCAASGFTFYRYAMGWYRQAPGKERELVAAISWSGGSTYYADSVKGRFTISRDNAKNTVYLQMNSLKPEDTAVYYCAANRRFVGTGSTYYYWGQGTHVTVSS
polyreactivity (PSR sort gate): high polyreactivity

SEQUENCE_ENTRY: QVQLVESGGGLVQAGGSLRLSCAASGSIFRYYVMGWYRQAPGKERELVAAISWSGGTTYYADSVKGRFTISRDNAKNTVYLQMNSLKPEDTAVYYCAAKGPLGYYHATDYHDYWGQGTQVTVSS
polyreactivity (PSR sort gate): high polyreactivity

SEQUENCE_ENTRY: QVQLVESGGGLVQAGGSLRLSCAASGRTFSGNAMGWYRQAPGKERELVAAINWRGGRTYYADSVKGRFTISRDNAKNTVYLQMNSLKPEDTAVYYCAVSAYKGYDYWGQGTQVTVSS
polyreactivity (PSR sort gate): high polyreactivity

SEQUENCE_ENTRY: QVQLVESGGGLVQAGGSLRLSCAASGSIFVVYAMGWYRQAPGKERELVAAITADDDTNYADSVKGRFTISRDNAKNTDYLQMNSLKPEDTAVYYCAKEVWLAINTRTGYEVYYWGQGTQVTVSS
polyreactivity (PSR sort gate): low polyreactivity

SEQUENCE_ENTRY: QFQLVESCGGLVQAGGTLRLSCAASGFIFDIYERGWYRQAPGKERELVAAITWNSGSTHYADSVKGRFTISRDNAKKTVYLQMNSLNPDDTAVYYCAAVEVTYAYYPYDYCGQGTQVTVSS
polyreactivity (PSR sort gate): low polyreactivity

SEQUENCE_ENTRY: QFQLVESGGCLVQAGGSLRLSCAASGRTFGWYAMGWYRQAPGKERELVAAISTRGTRTYYADSVKGRFTISRDNAKITDYLQMYSLKPEDTAVYYCNAKRRAVTTAHGIPEEDYWGQGTKVTVSS
polyreactivity (PSR sort gate): high polyreactivity

SEQUENCE_ENTRY: QVQLVESGGGLVQAGGSLRLSCVASGRTFGNKAMGWYRQAPGKERELVAAITSGGSTNYADSVKGCFTISRDNAKNTVYLQMNSLKPEDTAVYYCAAKQYRAGGGYWGQGTQVTVSS
polyreactivity (PSR sort gate): high polyreactivity

SEQUENCE_ENTRY: QVQLVESGGGLVQAGGSLRLSCAASGIIFYDYAMGWYRQAPGKERELVAAISGSGVGTYYADSVKGRFTISRDNAKNTVYLQMNSLKPEDTAVYYCATRYQWGGPYYRYDYWGQGTQVTVSS
polyreactivity (PSR sort gate): high polyreactivity

SEQUENCE_ENTRY: QDQLVESGGGLVHAGGSLRLSSAASGLTFSYYAMGWYRQAPGKERELVAAIDYSGGTTYADSVKGRFTISRDNAKNTVYLQMNSLKPEDTAVYYCADAPDGWFASGDEYWGHGTQVTVSS
polyreactivity (PSR sort gate): high polyreactivity

SEQUENCE_ENTRY: QVQLVESGGGLVQAGGSLRLSCAASGFTFGDYAMGWYRQAPRKERELVAAISKRGGRTFYADSVKGRFTISRDNAKNTVYLQMNSLKPEDTAVYYCAKAGSFDYDYWGQGTQVTVSS
polyreactivity (PSR sort gate): high polyreactivity

SEQUENCE_ENTRY: QVQLVESGGGLVQAGGSLRLSCAASGRIFDRYAIGWYRHAPGKERELVAAITSGGDTNYADSVKGRFTISRDNAKITVYLPKNSLKPEDTAVYYCNTRLVLGGGRRHDYWGQGTQVTVSS
polyreactivity (PSR sort gate): low polyreactivity

SEQUENCE_ENTRY: QVQLVESGGGLVQAGGSLRLSSPASGFTFLAYAMGWYRQAPGKERELVAAISASSGRTRYADSVKGRFTISRDNAKNTVYLQMISLKPEDTAVYYCAARYRGTYRRDYWGQGTQVTVSS
polyreactivity (PSR sort gate): high polyreactivity

SEQUENCE_ENTRY: QVQLVESGGRLVQAGRSLRLSCAASGSIFHDYAMGWYRQAPGKERELVAVISTSGGSTYYADSVKGRFTISRDNAKNTVYCQMNRLKPEDTAFYYCNARTVGPYPSHAALEYDSWGQGTQVTVSS
polyreactivity (PSR sort gate): low polyreactivity

SEQUENCE_ENTRY: QVQLVESGGGLVQAGGSLRLSCAASGITSPYAMGWYRQAPGKERELVAAISWSGSSTYYADSVKGRFTISRDNAKYTVYLQMNSLNPEDTAVYYCATLVSASRSRRFGYEYWGQGSQVTVSS
polyreactivity (PSR sort gate): high polyreactivity

SEQUENCE_ENTRY: QVQLVESGGGLVQAGGSLRLSCAASGSTFRRYAMGWYRQAPGKERELVADIRGIGGSTYYADSVKGRFTISRDNAKNTVYLQMNSLKPEDTAVYYCNTSTLGGYYWGQGTQVTVSS
polyreactivity (PSR sort gate): low polyreactivity

----------
EXPERIMENT_SUMMARY: yeast display, Sf9 membrane polyspecificity reagent, FACS + sequencing; frameworks hold sequencing errors

SEQUENCE_ENTRY: QVQLVESGGGLVQAGGSLRLSCAASGFTFYDNAMGWYRQAPGKERELVAAISSSGTRTYYADSVKGRFTISRDNAKNTVYLQMNSLKPEDTAVYYCAARGQAYSGDRMYYWGQGTQVTVSS
polyreactivity (PSR sort gate): high polyreactivity
//
SEQUENCE_ENTRY: QVQLVESGGGLVQAGGSLRLSCAASGSIFRRNSMGWYRPAPGKERELVAAISSIGSSTYYADSVKGRFTISRDNAKNTVYLQMNSLKPEDTAVYYCAALYVQGSHTYGYWGQGTQVTVSS
polyreactivity (PSR sort gate): high polyreactivity
//
SEQUENCE_ENTRY: QVQLVESGGGLVQAGGSLRLSCAASGSIFGRNAMGWYRQAPGKERELVAAISTSGGSTYYADSVKGRFTISRDNAKNTVYLQMNSLKPEDTAVYYCNAEQYTQLDVNLYDYWGQGTQVTVSS
polyreactivity (PSR sort gate): low polyreactivity
//
SEQUENCE_ENTRY: QVQLVESGGGLVQAGGSLRLSCAASGSIFEYYTMGWYRQAPGKEREFVAAITFTGDSTYYADSVKGRFTISRDNAKNTVYLQMNSLKPEDTAVYYCNADSVTYDGEYDYWGQGTQVTVSS
polyreactivity (PSR sort gate): low polyreactivity
//
SEQUENCE_ENTRY: QVQLVESGGGLVQAGGSLRLSCAASGSIFVGYAMGWYRQAPGKEREWVAAIRSGGSTKYADSVKGRFTISRDNAKNTVYLQMNSLKPEDTAVYYCNVEVHPYYWVDNFQRFPVLHNYWGQGTQVTVSS
polyreactivity (PSR sort gate): low polyreactivity

----------
EXPERIMENT_SUMMARY: yeast display, Sf9 membrane polyspecificity reagent, FACS + sequencing; frameworks hold sequencing errors

SEQUENCE_ENTRY: QVQLVESGGGLVQAGGSLRLSCAASGRTFNKYAMGWYRKAPGKERELVAAINYSGGRTYYADSVKGRFTISRDNAKNTVSLQMNSLKPEDTAVYYCNRDDAWQEYDYWGQGTQVTVSS
polyreactivity (PSR sort gate): low polyreactivity
--
SEQUENCE_ENTRY: IIQAGGSLRLSCAASGGTFFVYMGWYRQAPGKERELVADISGFGGGTYYADSVKGRFTISRDNAKNTVYLQMNSLKPEYTAVYYCATVVPTGIIRMYWGQGTQVTVSS
polyreactivity (PSR sort gate): low polyreactivity
--
SEQUENCE_ENTRY: QVQLVESGGGLVQAGGSLRLSCAASGLRFNVYAMGWYRQAPGKERELVAAITSGGSTHYADSVKGRFTISRDNAKNTVYLQMNSLKPEDTAVYYCNKELATARGQSLYRTYSGYGYRGQGTQVTVSS
polyreactivity (PSR sort gate): high polyreactivity
--
SEQUENCE_ENTRY: QVQLVESGGGLVQAGGSLRLSCAASGLTFVTYVMGWYRQAPGKERELVAAISYSGGSTYYADSVKGRFTISRDNAKNTVYLQMNSLKPEDTAVYYCAAEWYGYQEDDYRGQGTQVTVSS
polyreactivity (PSR sort gate): low polyreactivity
--
SEQUENCE_ENTRY: QVQLVESGGGLVQAGGSLRLSCAASGSIFRYYAMGWYRQAPGKERELVAAISSGDSTNYADSVKGRFTISRDNAKNTVYLQMNSLKPEDTAVYYCAAGVVRGPGYYRKYYYWGQGTQVTVSS
polyreactivity (PSR sort gate): high polyreactivity

Data credit: the nanobody polyreactivity screen of Harvey et al. (2022)
